Test system: M14 melanoma
assay_notes: NCI-60 one-dose screen, 48 h
experimental_parameters: 10 µM unless noted
About 83,000 compounds went through this panel and 20% of them were active in at least one assay; those are over-represented in the sample as a whole. Calls of active or inactive are those of the source. How the source made its calls: active means growth percent below 10; inactive means the rest.
One label from this list, please: TRUE (active), FALSE (inactive)

Known results for compounds:
O=C(Nc1cccc(Cl)c1)Nc1nc2ccc(-c3cccc4ccccc34)cc2s1 : FALSE
O=C(CCCCCCN1CC(=O)N2[C@@H](c3cccc(Br)c3)c3[nH]c4ccccc4c3C[C@H]2C1=O)NO : FALSE
CN1C(=O)/C(=C/C=C/c2ccco2)SC1=S : FALSE

State the result this test recorded for Brc1cccc(/C=N/Nc2nc(N/N=C/c3cccc(Br)c3)nc(N3CCOCC3)n2)c1 .
FALSE

Same for COc1ccc2c(ccn2C(=O)N2c3ccccc3Sc3ccccc32)c1
FALSE

----------
Test system: SNB-75 CNS
assay_notes: NCI-60 one-dose screen, 48 h (100 = growth as untreated, 0 = no growth, -100 = all killed)
experimental_parameters: 10 µM unless noted
This is part of a sample that, as a whole, favours compounds with a hit. Of some 83,000 tested, about 20% had one in any assay.
// label = 1 (yes) if growth is not less than 60%, otherwise 0 (no)

COc1ccc(Cn2cc3c(c2-c2ccccc2)CCCc2cnoc2-3)cc1[N+](=O)[O-] : 0 (no)
C=CCn1c(SCC(=O)Nc2ccc(OC)cc2)nnc1-c1ccc(Cl)cc1 : 1 (yes)
O=C(Nc1cccc(-c2nc(-c3ccc(NC(=O)c4cccnc4)cc3Cl)no2)c1)Nc1ccc(NC(=O)C2CC2)c(C(F)(F)F)c1 : 0 (no)
COc1cc2oc(-c3cccc(NC(=O)c4cc(NC(=O)[C@H](C)NC(=O)OC(C)(C)C)ccc4C)c3)cc(=O)c2c(OC)c1OC : 1 (yes)
Cc1ccc(/C=C/CC(=O)Nc2ccc(C(=O)Nc3ccc(F)cc3N)nc2)cn1 : 0 (no)

Would you say COc1ccc2c(C3=C(c4c[nH]c5ccccc45)C(=O)N(O)C3=O)coc2c1 shows growth at minimum 60%?
1 (yes)

Same for O=C1C[C@@H](c2ccccc2)Oc2c(Cc3ccccc3O)c(O)c(Cc3cc(Cc4cc(Cc5ccccc5O)ccc4O)ccc3O)c(O)c21
1 (yes)

Same for O=C(Cn1cc(CN2C(=O)c3ccc([N+](=O)[O-])cc3C2=O)nn1)Nc1ccc(F)cc1Cl
1 (yes)

----------
Tested on: SNB-19 CNS
assay_notes: NCI-60 one-dose screen, 48 h (100 = growth as untreated, 0 = no growth, -100 = all killed)
experimental_parameters: 10 µM unless noted
The panel holds about 83,000 compounds, 20% with a hit somewhere; the sample as a whole holds those more often.
Reported growth by item:
The answer is to be given in %; state only the numeric part.

CN(C)c1ncc(/C=C2\SC(=S)N(Cc3ccccc3Cl)C2=O)s1 : 78.6
O=C1CC2(CCOCC2)Oc2ncccc21 : 51.4
C=C(C)[C@@H]1CC[C@]2(COS(C)(=O)=O)CC[C@]3(C)[C@H](CC[C@@H]4[C@@]5(C)CCCNC(C)(C)[C@@H]5CC[C@]43C)[C@@H]12 : 81.5
CCCCOc1ccc(S(=O)(=O)N2CCN(c3nccc(N4CCOCC4)n3)CC2)cc1 : 71.4
CC(C)(C)CC(C)(C)n1nnnc1C(Nc1ccccc1)c1cc2cccc3ccc4cccc1c4c32 (configuration not stated) : 95.1
Cc1ccc(/C=C/CC(=O)Nc2ccc(C(=O)Nc3ccc(F)cc3N)cc2)cn1 : 73.7

Now look at this one.
Which growth reading was recorded for the compound COC(=O)[C@@]1(C)CC[C@]2(C)CC[C@]3(C)C(=CC(=O)[C@@H]4[C@@]5(C)Cc6c(n(CC#CCN7CCN(C)CC7)c7ccccc67)C(C)(C)[C@@H]5CC[C@]43C)[C@@H]2C1 ?
54.3

----------
Reported growth by item:
Test system: MALME-3M melanoma
assay_notes: NCI-60 one-dose screen, 48 h (100 = growth as untreated, 0 = no growth, -100 = all killed)
experimental_parameters: 10 µM unless noted
This is part of a sample that, as a whole, favours compounds with a hit. Of some 83,000 tested, about 20% had one in any assay.
The answer is to be given in %; state only the numeric part.

Solved cases (5 shown):
CCc1ccc(NC(=O)N[C@@H](Cc2cccc(F)c2)C(=O)N[C@@H]2C(=O)N3CCC[C@H]3C(=O)N3CCCC[C@H]3C(=O)N[C@@H](CO)C(=O)N3C[C@H](C)C[C@H]3C(=O)O[C@H]2C)c(F)c1 : 41.5
C=C(C)C(=O)O[C@H]1C[C@@]2(C)OC(=CC2=O)/C(C)=C\[C@H]2OC(=O)C(=C)[C@H]12 : 6.62
COC(=O)[C@@]1(C)CC[C@]2(C)CC[C@]3(C)C(=CC(=O)[C@@H]4[C@@]5(C)Cc6c(n(CC#CCN7CCN(C)CC7)c7ccccc67)C(C)(C)[C@@H]5CC[C@]43C)[C@@H]2C1 : 115
O=c1[nH]c(CCl)nc2c1cnn2-c1ccccc1 : 110
C[C@H]1[C@H](C)CC[C@]2(COC(=O)c3cccnc3)CC[C@]3(C)C(=CC[C@@H]4[C@@]5(C)CCCNC(C)(C)[C@@H]5CC[C@]43C)[C@H]12 : 59.9

Which growth reading was recorded for the compound Cc1ccc(/C=C/c2nn3c(-c4ccco4)nnc3s2)cc1 ?
106

Same for CNC(=O)c1c(NC(=O)c2ccc(F)cc2F)sc2c1CCC(=O)C2
-9.54

Same for COc1ccc2c(C3=C(c4cn(C)c5ccccc45)C(=O)NC3=O)coc2c1
97.1

Same for NS(=O)(=O)c1ccc(-n2cc(CC=O)nn2)cc1
108

Same for Cc1[nH]nc2ccc(-c3nc4cnc(N5CCN(C)CC5)cn4c3Nc3ccc(F)cc3Br)cc12
76.8

Same for CN1CCN(c2ccc3c(c2)nc(NNC(=O)c2ccncn2)c2cccn23)CC1
43.9

Same for N#C/C(=C\c1ccc(-c2ccc(F)cc2)o1)C(=O)Nc1ncc(Cc2ccc(Cl)cc2Cl)s1
-52.7

----------
Reported growth by item:
Test system: SK-OV-3 ovarian
assay_notes: NCI-60 one-dose screen, 48 h (100 = growth as untreated, 0 = no growth, -100 = all killed)
experimental_parameters: 10 µM unless noted
This is part of a sample that, as a whole, favours compounds with a hit. Of some 83,000 tested, about 20% had one in any assay. Calls of active or inactive are those of the source. Rule for the calls: active = growth percent below 10; inactive = the rest.

Solved cases (8 shown):
Cn1cc(-c2nn3cc(-c4cccnc4)nc3s2)c2cc(F)ccc21 : 77.4% (inactive)
CCN1C/C(=N\S(=O)(=O)c2ccccc2)N(CC)C1=S : 118% (inactive)
O=C(O)c1ccc(-n2cc(CNc3ccc(Cl)cc3)c(-c3ccc(F)cc3)n2)cc1 : 110% (inactive)
Cc1ccccc1/C=C/c1nn2c(-c3ccoc3C)nnc2s1 : 118% (inactive)
CS(=O)(=O)c1nccc(-c2c(-c3ccc(F)c(OCc4ccccc4)c3)nc3sccn23)n1 : 117% (inactive)
C/C(=N\NC(=O)CSc1nc2sc3c(c2c(=O)n1-c1ccccc1)CCC(C)C3)c1ccc(Cl)cc1 (configuration not stated) : 57.4% (inactive)
CCOC(=O)c1c(NC(=O)c2ccc(F)cc2F)sc2c1CCC(=O)C2 : 104% (inactive)
Cc1cc(F)cc(NS(=O)(=O)c2ccc(-c3cnc(C4CC4)o3)cc2)c1 : 58.2% (inactive)

Which growth reading was recorded for the compound COc1ccc(-c2nn(-c3ccccc3)cc2/C=C/C(=O)c2ccc(NC(=O)CCCCCCC(=O)NO)cc2)cc1 ?
91.7% (inactive)

Same for C#CCOc1ccc(/C=N/Nc2nc(-c3cc(Cl)ccc3Cl)cs2)cc1
97.9% (inactive)

Same for COc1ccc(-c2nc3cc(Cl)c(Cl)cc3n2CC(=O)N=Nc2c(O)[nH]c3ccc(Cl)cc23)cc1
52.5% (inactive)

Same for COc1cc2c3c(n(CCCN4CCCCC4)c(=O)c2cc1OC)-c1cc2c(cc1C3=O)OCO2
46% (inactive)

Same for CCNC(=O)Oc1ccc(/C(=C(/C)c2ccc(Cl)cc2)c2ccc(OCCN(C)C)cc2)cc1
94.2% (inactive)

Same for CC(C)C(=O)Nc1ccc(-c2nc(-c3cccc(O)c3)c(-c3ccnc(Br)c3)[nH]2)cc1
54.5% (inactive)

Same for Oc1ccccc1-c1nnc(SCc2ccc(O)c3ncccc23)o1
19.5% (inactive)

Same for COc1ccc(-c2nnc(SCc3ccc(O)c4ncccc34)o2)cc1
51.7% (inactive)

Same for CC(C)c1nn(-c2ccccc2)c(N2CCCCC2)c1/C=N/NC(N)=S
106% (inactive)

Same for COc1cc(/C=N/n2cnc3oc(-c4ccccc4)cc3c2=N)cc(CN2CCCC2)c1O
93.9% (inactive)

Same for O=C1[C@H]2Cc3c([nH]c4ccccc34)[C@H](c3ccc(Cl)cc3)N2C(=O)CN1C1CCN(Cc2c(Cl)cccc2Cl)CC1
98.5% (inactive)

Same for N/C(=N\OC(=O)CSc1nc2ccccc2s1)c1ccc2ccccc2c1
101% (inactive)

Same for NC(=S)N/N=C(/C=C/c1cn(-c2ccccc2)nc1-c1ccc(Cl)cc1)c1cc2ccccc2oc1=O
85.2% (inactive)

Same for CCN1C(=O)N(CC)C2SC(N/N=C/C=C/c3ccccc3OC)=NC21 (configuration not stated)
52.8% (inactive)

Same for CNC(=O)c1cc(Oc2ccc3nc(NC(=O)c4ccc(CN5CCN(C)CC5)c(C(F)(F)F)c4)sc3c2)ccn1
87.1% (inactive)

Same for O=S(=O)(Nc1cc(Cl)c(F)c(Cl)c1)c1ccc(-c2cnc(C3CC3)o2)cc1
72.8% (inactive)
